Target: RORγ (Homo sapiens)
Construct: expressed in transfected cells; host or cells: HEK 293 cells, transiently transfected
Sequence (P51449 269-508 limits assumed): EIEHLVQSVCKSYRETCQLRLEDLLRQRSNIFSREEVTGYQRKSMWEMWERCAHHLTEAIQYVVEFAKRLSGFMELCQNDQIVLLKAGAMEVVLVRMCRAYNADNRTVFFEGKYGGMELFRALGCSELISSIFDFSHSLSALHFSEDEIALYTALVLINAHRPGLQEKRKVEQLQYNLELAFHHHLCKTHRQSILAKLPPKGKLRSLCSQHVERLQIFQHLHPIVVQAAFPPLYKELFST
Assay: Reporter Gene Assay (RGA): nuclear receptor transactivation assay, inhibition of RORγ transactivation of a luciferase reporter in transiently transfected HEK 293 cells
Assay type: cell-based
Settings: read-out: RGA IC50
PARAMETER: IC50 (nM)

1) CCS(=O)(=O)c1ccc(CNc2nc3cnc(-c4c(C)ncnc4C4CC4)nc3n(CC(C)C)c2=O)nc1 : 325

1: CCS(=O)(=O)N[C@H]1C[C@H](CNc2nc3cnc(-c4c(C)ncnc4C4CC4)nc3n([C@@H](C)C3CC3)c2=O)C1
2: CCc1ncnc(C2CC2)c1-c1ncc2nc(NCc3ccc(S(C)(=N)=O)cc3)c(=O)n([C@@H](C)C3CC3)c2n1 (stereo partly shown)
[ask] Lower value for measured IC50? Options: 1 , 2 When you have decided, please share the label of that item.
[reply] 2

I: CCS(=O)(=O)c1ccc(CNc2nc3cnc(-c4c(OC)ncnc4C4CC4)nc3n(C3CCCC3=O)c2=O)nc1 (stereo not shown)
II: CS(=O)(=O)c1ccc(CNc2nc3cnc(-c4c(C5CC5)ncnc4C4CC4)nc3n(C3CC3)c2=O)cc1
[ask] Thinking about recorded IC50 values, which is higher, I or II ? # respond with the chosen item's label
[reply] II
(II: 3000 nM, I: 420 nM)

----------
target: RORγ (Homo sapiens); construct: expressed in transfected cells; host or cells: HEK 293 cells, transiently transfected; experiment: Reporter Gene Assay (RGA): nuclear receptor transactivation assay, inhibition of RORγ transactivation of a luciferase reporter in transiently transfected HEK 293 cells; format: cell-based; conditions: read-out: RGA IC50
pIC50: −log10 of the molar value.
PARAMETER: pIC50

1. COc1ncnc(C2CC2)c1-c1ncc2nc(NCc3ccc(S(C)(=O)=O)cc3)c(=O)n([C@H]3CCC[C@@H]3OC)c2n1 : 6.57
2. CNS(=O)(=O)c1ccc(CNc2nc3cnc(-c4c(OC)ncnc4C4CC4)nc3n(C(C)C)c2=O)nc1 : 6.73
3. CNS(=O)(=O)c1ccc(CNc2nc3cnc(-c4c(OC)ncnc4C4CC4)nc3n(C3CCC3)c2=O)nc1 : 6.69
4. CCS(=O)(=O)N1CC[C@@H](CNc2nc3cnc(-c4c(C)ncnc4C4CC4)nc3n([C@@H](C)C3CC3)c2=O)C1 : 6.65
